// provenance: patent US20230087118A1

target: IRAK4 (Homo sapiens); test: biochemical
measurement-kind: IC50 (nM)

Observe how each entry below is paired with its result.
>  <compound>
CCOc1cc(C(=O)Nc2cccc(C(F)F)n2)cn2cc([C@@H]3CCCOC3)nc12 (single isomer, unassigned)

>  <measurement-kind>
IC50

>  <measured-value>
6.5

$$$$
>  <compound>
COc1cc2nc(C3CCOCC3)cn2cc1C(=O)Nc1cccc(CF)c1

>  <measurement-kind>
IC50

>  <measured-value>
24.5

$$$$

(1) COCc1cc2nc(C34COC(C)(C3)C4)cn2cc1C(=O)Nc1cccn(C)c1=O
(2) Cc1cnc2c(NC(=O)c3cn4cc([C@]56CC[C@](C)(C5)OC6)nc4nc3OC(C)C)cnn2c1 (single isomer, unassigned)
## Input Please indicate which has the smaller reported IC50: 1 , or 2 . Field: selected label. Fill in the label of the entry you choose.
## Output 2
(2: 0.6 nM, 1: 7140 nM)

====

molecular target: IRAK4 (Homo sapiens, UniProt Q9NWZ3); assay: 2-hour 10 μM ATP Biochemical Assay (MesoScale Detection format; IRAK4 phosphorylation of biotin labeled IRAK1 activation loop peptide); conditions: 0.1 nM IRAK4
Sequence (Q9NWZ3 whole entry): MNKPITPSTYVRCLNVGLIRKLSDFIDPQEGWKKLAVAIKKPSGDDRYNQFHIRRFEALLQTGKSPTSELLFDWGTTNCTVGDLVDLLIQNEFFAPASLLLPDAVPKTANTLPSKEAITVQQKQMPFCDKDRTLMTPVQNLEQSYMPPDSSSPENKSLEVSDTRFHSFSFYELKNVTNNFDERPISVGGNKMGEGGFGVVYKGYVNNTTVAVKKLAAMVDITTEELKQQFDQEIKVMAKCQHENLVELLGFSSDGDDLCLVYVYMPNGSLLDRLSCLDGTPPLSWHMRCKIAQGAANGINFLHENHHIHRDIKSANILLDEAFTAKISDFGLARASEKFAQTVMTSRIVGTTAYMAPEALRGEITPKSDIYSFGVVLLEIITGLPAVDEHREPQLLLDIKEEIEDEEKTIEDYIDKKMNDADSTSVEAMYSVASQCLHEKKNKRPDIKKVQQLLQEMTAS
measurement-kind: IC50 (nM)

Observe how each entry below is paired with its result.
>  <compound>
COc1cc2nc(C3CCOCC3)cn2cc1C(=O)Nc1ccc(F)c(F)c1C

>  <measurement-kind>
IC50

>  <measured-value>
169

$$$$
>  <compound>
COc1cc2nc(CC(C)C#N)cn2cc1C(=O)Nc1cccc(C(F)(F)F)n1 (stereo not drawn)

>  <measurement-kind>
IC50

>  <measured-value>
31

$$$$

(P) COc1cc2nc(C3CCOCC3)cn2cc1C(=O)Nc1cccc(Cl)c1OC
(Q) COc1cc2nc(C3CCOCC3)cn2cc1C(=O)Nc1cccc2c1OCC2
(R) COc1cc2nc(C3CCOCC3)cn2cc1C(=O)Nc1cccc(Cl)c1
(S) COc1cc2nc(C3CCOCC3)cn2cc1C(=O)Nc1cccc(C)c1C
## Input Sort the compounds on IC50; start with the lowest figure. Form entry: ranked labels (order as requested).
## Output P, Q, R, S

====

target: IRAK4 (Homo sapiens); assay: biochemical
pIC50: −log10 of the molar value.
measurement-kind: pIC50

Observe how each entry below is paired with its result.
>  <compound>
COc1cc2nc(C3CCOCC3)cn2cc1C(=O)Nc1cccn(C)c1=O

>  <tested-target>
IRAK4 (Homo sapiens)

>  <pIC50>
8.16

$$$$
>  <compound>
CC(C)Oc1c(C(=O)Nc2cccc(C(F)F)n2)cn2cc(C3CCOCC3)nc2c1F

>  <tested-target>
IRAK4 (Homo sapiens)

>  <pIC50>
8.85

$$$$
>  <compound>
Cn1cc(-c2cccc(NC(=O)c3cn4cc(C56COC(C)(C5)C6)nc4cc3OC3CCC3)n2)cn1

>  <tested-target>
IRAK4 (Homo sapiens)

>  <pIC50>
10.00

$$$$
>  <compound>
COc1cccn2ncc(NC(=O)c3cn4cc(C56COC(C)(C5)C6)nc4c(OC(C)C)n3)c12

>  <tested-target>
IRAK4 (Homo sapiens)

>  <pIC50>
9.70

$$$$
>  <compound>
COc1cccc(NC(=O)c2cn3cc(C45CCC(C)(C4)OC5)nc3cc2OC2CCC2)n1 (centres unmarked)

>  <tested-target>
IRAK4 (Homo sapiens)

>  <pIC50>
9.70

$$$$

(a) COc1cc2nc(C3CCOCC3)cn2cc1C(=O)Nc1cscc1Cl
(b) CC(C)Oc1nc2nc(C34CCC(C)(CC3)OC4)cn2cc1C(=O)Nc1cc(F)n(C)n1
## Input Please indicate which has the smaller reported pIC50: a , or b . Field: selected label. Fill in the label of the entry you choose.
## Output a
